Below, each of the molecules is paired with its reported pIC50 value.
experimental.system: Squalene synthase (Rattus norvegicus, UniProt Q02769)
Sequence (Q02769 whole entry): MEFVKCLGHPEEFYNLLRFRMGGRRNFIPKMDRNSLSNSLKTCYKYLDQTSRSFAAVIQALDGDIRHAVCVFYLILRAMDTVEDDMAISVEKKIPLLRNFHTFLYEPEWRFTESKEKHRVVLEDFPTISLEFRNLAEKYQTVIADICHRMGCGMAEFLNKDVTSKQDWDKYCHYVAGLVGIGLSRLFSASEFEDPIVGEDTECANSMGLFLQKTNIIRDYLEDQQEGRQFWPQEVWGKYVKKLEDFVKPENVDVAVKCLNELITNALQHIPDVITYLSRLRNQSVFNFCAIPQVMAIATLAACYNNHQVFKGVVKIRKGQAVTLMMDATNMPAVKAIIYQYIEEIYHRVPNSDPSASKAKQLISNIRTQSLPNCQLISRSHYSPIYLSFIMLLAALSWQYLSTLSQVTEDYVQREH
protocol.notes: Inhibition of juvenile male rat liver microsomal squalene synthase
pIC50: −log10 of the molar value.
readout.name: pIC50

* CC(CC[C@]12O[C@H](C(=O)O)[C@@](O)(C(=O)O)[C@](C(=O)O)(O1)[C@H](O)[C@H]2O)C[C@@H](C)Cc1ccccc1 (stereo partly drawn) | 6.38
* C=C(CC[C@]12O[C@H](C(=O)O)[C@@](O)(C(=O)O)[C@](C(=O)O)(O1)[C@H](O)[C@H]2O)[C@H](O)[C@@H](C)Cc1ccccc1 | 6.60
* CC[C@H](C)C[C@H](C)/C=C/C(=O)O[C@@H]1[C@@H](O)[C@@]2(C/C=C(\C)CC(C)Cc3ccccc3)O[C@H](C(=O)O)[C@@](O)(C(=O)O)[C@]1(C(=O)O)O2 (single isomer, unassigned) | 7.19

----------
Tested on: Candida albicans
protocol.notes: Compound was tested for an antifungal whole cell assay to obtain minimum inhibitory concentration against Candida albicans C316
Type: functional
particulars: Candida albicans; read-out: MIC
Measured MIC, listed per entry.
readout.name: MIC (µg/mL)

* CC[C@H](C)C[C@H](C)/C=C/C(=O)O[C@@H]1[C@@H](O)[C@@]2(CC/C(C)=C/[C@@H](C)Cc3ccccc3)O[C@H](C(=O)O)[C@@](O)(C(=O)O)[C@]1(C(=O)O)O2 | 31
* CC[C@H](C)C[C@H](C)/C=C/C(=O)O[C@@H]1[C@@H](O)[C@@]2(C/C=C(\C)CC(C)Cc3ccccc3)O[C@H](C(=O)O)[C@@](O)(C(=O)O)[C@]1(C(=O)O)O2 (single isomer, unassigned) | 31
* CC[C@H](C)C[C@H](C)CCC(=O)O[C@@H]1[C@@H](O)[C@@]2(C/C=C(\C)[C@H](OC(C)=O)[C@@H](C)Cc3ccccc3)O[C@H](C(=O)O)[C@@](O)(C(=O)O)[C@]1(C(=O)O)O2 | 125
* CC(=O)O[C@@H](C(C)CC[C@]12O[C@H](C(=O)O)[C@@](O)(C(=O)O)[C@](C(=O)O)(O1)[C@H](O)[C@H]2O)[C@@H](C)Cc1ccccc1 (some centres not stated) | 125
* C=C(CC[C@]12O[C@H](C(=O)O)[C@@](O)(C(=O)O)[C@](C(=O)O)(O1)[C@H](OC(=O)CC[C@@H](C)C[C@@H](C)CC)[C@H]2O)[C@H](OC(C)=O)[C@@H](C)Cc1ccccc1 | 8
* CC(CC[C@]12O[C@H](C(=O)O)[C@@](O)(C(=O)O)[C@](C(=O)O)(O1)[C@H](O)[C@H]2O)C[C@@H](C)Cc1ccccc1 (some centres not stated) | 125
* C=C(CC[C@]12O[C@H](C(=O)O)[C@@](O)(C(=O)O)[C@](C(=O)O)(O1)[C@H](OC(=O)/C=C/[C@@H](C)C[C@@H](C)CC)[C@H]2O)[C@H](OC(C)=O)[C@@H](C)Cc1ccccc1 | 8
* C=C(CC[C@]12O[C@H](C(=O)O)[C@@](O)(C(=O)O)[C@](C(=O)O)(O1)[C@H](OC(=O)/C=C/[C@@H](C)C[C@@H](C)CC)[C@H]2O)[C@H](O)[C@@H](C)Cc1ccccc1 | 125
* CC[C@H](C)C[C@H](C)CCC(=O)O[C@@H]1[C@@H](O)[C@@]2(CCC(C)[C@H](O)[C@@H](C)Cc3ccccc3)O[C@H](C(=O)O)[C@@](O)(C(=O)O)[C@]1(C(=O)O)O2 (some centres not stated) | 125
* C=C(CC[C@]12O[C@H](C(=O)O)[C@@](O)(C(=O)O)[C@](C(=O)O)(O1)[C@H](O)[C@H]2O)[C@H](O)[C@@H](C)Cc1ccccc1 | 62
* CC[C@H](C)C[C@H](C)CCC(=O)O[C@@H]1[C@@H](O)[C@@]2(CCC(C)C[C@@H](C)Cc3ccccc3)O[C@H](C(=O)O)[C@@](O)(C(=O)O)[C@]1(C(=O)O)O2 (some centres not stated) | 31

----------
In this section we review reported IC50 values for a set of compounds.
experimental.system: Squalene synthase (Rattus norvegicus)
readout.name: IC50 (nM)

* C/C(=C\[C@@H](C)Cc1ccccc1)CC[C@]12O[C@H](C(=O)O)[C@@](O)(C(=O)O)[C@](C(=O)O)(O1)[C@H](O)[C@H]2O | 200
* CC[C@H](C)C[C@H](C)CCC(=O)O[C@@H]1[C@@H](O)[C@@]2(CCC(C)[C@H](OC(C)=O)[C@@H](C)Cc3ccccc3)O[C@H](C(=O)O)[C@@](O)(C(=O)O)[C@]1(C(=O)O)O2 (stereo in doubt; 2f) | 165
* CC[C@H](C)C[C@H](C)/C=C/C(=O)O[C@@H]1[C@@H](O)[C@@]2(CC/C(C)=C/[C@@H](C)Cc3ccccc3)O[C@H](C(=O)O)[C@@](O)(C(=O)O)[C@]1(C(=O)O)O2 | 32
